details: 313.15 K; 101 kPa; Liquid
measured_metric: mass density (kg/m3)
One number for each entry, in kg/m3.

Reference set (3 entries):
* Cc1ccc(C)cc1 [1,4-dimethylbenzene] | 843.58
* Cc1ccccc1C [1,2-dimethylbenzene] | 859.67
* Cc1cccc(C)c1 [1,3-dimethylbenzene] | 847.11

From here, focus on the item given below.
Q: If you can, please state the reported mass density value of CC1COC(=O)O1 (centres undefined) [4-methyl-1,3-dioxolan-2-one] .
A: 1161.28

---

Answer each item with its documented mass density.
details: 323.15 K; 101 kPa; Liquid
Numbers only, in kg/m3.

Reference set (3 entries):
• CC1COC(=O)O1 (centres undefined) = 1142.43
• Cc1ccc(C)cc1 = 834.92
• Cc1cccc(C)c1 = 838.27

Q: If you can, please state the reported mass density value of Cc1ccccc1C .
A: 840.84

---

details: 293.15 K; 101 kPa; Liquid
measured_metric: mass density (kg/m3)
Give bare numbers, in kg/m3.

Reference set (3 entries):
- Cc1ccccc1C: 878.6
- CC1COC(=O)O1 (centres undefined): 1200.25
- Cc1cccc(C)c1: 864.2

From here, focus on the item given below.
Q: If you can, please state the reported mass density value of Cc1ccc(C)cc1 .
A: 861

---

details: 343.15 K; 101 kPa; Liquid
measured_metric: mass density (kg/m3)
One number for each entry, in kg/m3.

* Cc1cccc(C)c1 | 819.97

Go through the list and state mass density for each entry.
1. Cc1ccccc1C
2. Cc1ccc(C)cc1
3. CC1COC(=O)O1 (centres undefined)

A:
784.38
817.66
1105.98

---

details: 333.15 K; 101 kPa; Liquid
measured_metric: mass density (kg/m3)
Answers are plain numbers, in kg/m3.

• Cc1cccc(C)c1 = 829.22
• Cc1ccc(C)cc1 = 826.27
• CC1COC(=O)O1 (centres undefined) = 1123.99

From here, focus on the item given below.
Q: If you can, please state the reported mass density value of Cc1ccccc1C .
A: 815.74
